Ki values for the binders below.
target: T1, Cdc2; test: in vitro CDC2 kinase activity assay, 33P-ATP, Flash Plate
T1 construct: Bought enzyme

[[record]]
binder = "VELDPEFEPRARERTYSFGH [Peptide 1]"
readout_value = "> 33 µM"


Shift focus to the following entry.
// field: Ki; key: VELDPEFEPRARERAYAFGH (Made from peptide 2 by changing Thr at position 15 to Ala) [Peptide 4] ; value = > 33 µM

Where do the numbers come from? From patent US20040038883A1.
